Where these numbers come from: ChEMBL document CHEMBL5325448

- SYSTEM NAME: Epidermal growth factor receptor (Homo sapiens, UniProt P00533, C797S/L858R/T790M)
- Sequence (P00533 25-1210 T790M/C797S/L858R limits assumed): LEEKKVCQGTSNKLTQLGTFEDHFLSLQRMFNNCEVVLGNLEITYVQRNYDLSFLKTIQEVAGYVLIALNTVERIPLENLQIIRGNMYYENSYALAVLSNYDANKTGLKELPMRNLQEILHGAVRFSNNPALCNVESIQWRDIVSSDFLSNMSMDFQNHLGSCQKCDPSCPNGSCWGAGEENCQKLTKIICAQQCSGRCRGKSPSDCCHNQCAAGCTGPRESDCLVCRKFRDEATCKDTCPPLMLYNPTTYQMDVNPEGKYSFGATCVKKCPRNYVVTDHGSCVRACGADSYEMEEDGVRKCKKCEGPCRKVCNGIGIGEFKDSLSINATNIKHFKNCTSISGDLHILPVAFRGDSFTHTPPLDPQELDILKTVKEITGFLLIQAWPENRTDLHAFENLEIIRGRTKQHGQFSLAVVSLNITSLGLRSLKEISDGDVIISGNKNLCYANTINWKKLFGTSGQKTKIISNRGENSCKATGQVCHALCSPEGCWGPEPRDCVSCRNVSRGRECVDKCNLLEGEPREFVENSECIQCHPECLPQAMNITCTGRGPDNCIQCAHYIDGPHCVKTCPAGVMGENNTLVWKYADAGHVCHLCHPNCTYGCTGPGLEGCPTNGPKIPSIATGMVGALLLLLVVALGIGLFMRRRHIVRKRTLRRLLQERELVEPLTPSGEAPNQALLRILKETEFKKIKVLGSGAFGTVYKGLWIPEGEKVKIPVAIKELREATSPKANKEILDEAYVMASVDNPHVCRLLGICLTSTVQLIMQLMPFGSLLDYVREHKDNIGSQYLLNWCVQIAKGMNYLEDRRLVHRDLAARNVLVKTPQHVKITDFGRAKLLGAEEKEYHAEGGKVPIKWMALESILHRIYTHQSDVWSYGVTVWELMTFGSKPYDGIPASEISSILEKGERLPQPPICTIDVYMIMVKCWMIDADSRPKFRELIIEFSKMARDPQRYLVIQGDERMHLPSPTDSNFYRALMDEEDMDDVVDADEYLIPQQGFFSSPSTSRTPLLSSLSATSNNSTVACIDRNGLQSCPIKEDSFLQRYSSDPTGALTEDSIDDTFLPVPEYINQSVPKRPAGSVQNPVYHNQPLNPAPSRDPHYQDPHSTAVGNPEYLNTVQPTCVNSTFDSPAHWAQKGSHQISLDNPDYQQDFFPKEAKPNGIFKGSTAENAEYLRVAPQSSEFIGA
- ASSAY PROTOCOL: Inhibition of EGFR L858R/T790M/C797S triple mutant (unknown origin) using TK as substrate incubated for 120 mins in presence of ATP by HTRF assay
ATTRIBUTE MEASURED: IC50 (nM)

Sample records with IC50:
- COMPOUND STRUCTURE: "COc1cc(N2CCC(N3CC(C(C)(C)O)C3)CC2)c(C)cc1Nc1ncc(Br)c(Nc2ccc3nccnc3c2P(C)(C)=O)n1"
  IC50 (nM): 0.15
- COMPOUND STRUCTURE: "COc1cc(N2CCC(N(C)CCN(C)C)CC2)c(C)cc1Nc1ncc(Br)c(Nc2ccc3nccnc3c2P(C)(C)=O)n1"
  IC50 (nM): 0.15
- COMPOUND STRUCTURE: "COc1cc(N2CCC(N3CC(F)(CO)C3)CC2)c(C)cc1Nc1ncc(Br)c(Nc2ccc3nccnc3c2P(C)(C)=O)n1"
  IC50 (nM): 0.1
- COMPOUND STRUCTURE: "COc1cc(N2CCC(N3CC(C)(CO)C3)CC2)c(C)cc1Nc1ncc(Br)c(Nc2ccc3nccnc3c2P(C)(C)=O)n1"
  IC50 (nM): 0.15

A = COc1cc(N2CCC(N3CCN(C(C)=O)CC3)CC2)c(C)cc1Nc1ncc(Br)c(Nc2ccc3nccnc3c2P(C)(C)=O)n1
B = COc1cc(N2CCC(N3CC(CO)C3)CC2)c(C)cc1Nc1ncc(Br)c(Nc2ccc3nccnc3c2P(C)(C)=O)n1
C = COCC1(C)CN(C2CCN(c3cc(OC)c(Nc4ncc(Br)c(Nc5ccc6nccnc6c5P(C)(C)=O)n4)cc3C)CC2)C1
Rank the items in ascending order with respect to IC50. Please respond with the labels ordered as the question requires.
A, B, C
(A: 0.12 nM, B: 0.34 nM, C: 0.81 nM)
